- target.desc: Short transient receptor potential channel 4 (Mus musculus)
- assay.text: blockers of DAMGO-evoked TRPC4 calcium flux – cell-based, second round, Fluo4, HEK293 TRPC4beta/mu-opioid, 1 µM, confirmation (AID 2637)
- run.parameters: at 1 µM
Activity calls are given as the source filed them.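 How the source made its calls: active means calcium signal ratio cut to more than 3 SD under the fully stimulated control mean yet still positive, in both repeats and the primary screen; inactive means the rest.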
Outcomes: active, inactive

COc1cc(NS(=O)(=O)c2ccc3ccccc3c2)c2ncccc2c1 : inactive
COc1ccc(NS(=O)(=O)c2cccc(C(=O)N3CCN(Cc4cc(OC)ccc4OC)CC3)c2)cc1 : inactive
COc1cc2cc(C)c(SCC(=O)N3CCN(C(=O)c4ccco4)CC3)nc2cc1OC : inactive
CCCn1c(N2CCN(S(=O)(=O)Cc3ccccc3)CC2)nc2ccccc21 : inactive
Cc1cc(NC(=O)CSCC(=O)Nc2ccc(Cl)c(C(F)(F)F)c2)no1 : inactive
CC1CC(C)CN(CCCNC(=O)c2csc3c2CCCCC3)C1 (stereo unspecified) : inactive
CCCCCOc1ccc2oc(=O)c3c(c2c1)CCCN3C(=O)CN1CCCC(C(=O)OCC)C1 (stereo unspecified) : inactive
COc1ccc(CN2CCN(Cc3ccc(C(F)(F)F)cc3)CC2)c(OC)c1 : active
CCN(CC)CCNc1ccc(Cl)cc1[N+](=O)[O-] : inactive
Nc1c2c(nc3ccccc13)CCC2 : active
CCOc1ccc(CN(C)CC(=O)NNC(=O)c2ccc(Cl)cc2)cc1OC : inactive
